# assay.overview: qHTS assay to identify small molecule antagonists of the estrogen receptor alpha (ER-alpha) signaling pathway - cell viability counter screen (AID 743074);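 further: HEK293 cells carrying ER-alpha-UAS-bla reporter stimulated with 17beta-estradiol; nearly all actives have a fitted effect of over 45% in size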
# test.parameters: ERalpha-bla HEK293 viability, CellTiter-Glo luminescence, 18 h; series mostly up to 69.4 µM
Results filed as inconclusive are left out. The source made the active and inactive calls. The call rests on the fitted dose curve.
Could you please pick one outcome from this set? active, inactive

Solved cases below.
CN(C)c1ccc(SC#N)cc1 : inactive
O=C1CCCCCN1SSN1CCCCCC1=O : inactive
Cc1c(C)c2c(c(C)c1OC(=O)CCC(=O)O)CC[C@@](C)(CCC[C@H](C)CCC[C@H](C)CCCC(C)C)O2 : inactive
CCCCCOC(=O)CCCC : inactive
O=c1cccccc1O : inactive
Oc1ccc2cc(SSc3ccc4cc(O)ccc4c3)ccc2c1 : inactive
Cc1cc(O)c(C(C)(C)C)cc1Sc1cc(C(C)(C)C)c(O)cc1C : active
CC(C)=CCOc1ccc(/C=C/C(=O)c2ccc(OCC=C(C)C)cc2OCC(=O)O)cc1 : inactive
Oc1ccc2c(c1)-c1ccccc1C2 : inactive
CCOC(=O)O[C@]1(C(=O)OCCl)CC[C@H]2[C@@H]3CCC4=CC(=O)C=C[C@]4(C)[C@H]3[C@@H](O)C[C@@]21C : inactive

Which outcome was assigned to CN(C)[C@@H]1C(=O)C(C(N)=O)=C(O)[C@@]2(O)C(=O)C3=C(O)c4c(O)ccc(Cl)c4[C@@H](O)[C@H]3C[C@@H]12 in this test?
inactive

Which outcome was assigned to Cc1cc(O)c2ccccc2c1O in this test?
inactive

Which outcome was assigned to NNC(=O)c1cccc(C(=O)NN)c1 in this test?
inactive

Which outcome was assigned to CC1=C(C(=O)OC(C)C)C(c2cccc([N+](=O)[O-])c2)C(C(=O)OC2CN(C(c3ccccc3)c3ccccc3)C2)=C(N)N1 (centres undefined) in this test?
active

###

# assay.overview: qHTS RealTime-Glo MT Cell Viability Assay in HepG2 cells - 32 hour (AID 1224877); further: nearly all actives have a fitted effect of over 55% in size
# test.parameters: RealTime-Glo luminescence; series mostly up to 76.8 µM
Results filed as inconclusive are left out. Active and inactive are the calls of the source. Calls come from the whole dose curve; as a rule, active = well fitted cell-killing curve with a large enough effect in the repeat runs; inconclusive = weak or mixed curves; inactive = flat fitted curve, though single readings scatter.
Could you please pick one outcome from this set? active, inactive

Solved cases below.
CCCCCCCCCCCCCCCCCC[N+](C)(C)Cc1ccccc1 : active
NC(=O)C1(N2CCCCC2)CCN(CCCN2c3ccccc3CCc3ccc(Cl)cc32)CC1 : active
Nc1ccc2cc(S(=O)(=O)O)cc(O)c2c1N=Nc1ccccc1C(F)(F)F : inactive
O=c1c(-c2ccccc2)c1-c1ccccc1 : active
CCCCC(CC)CN=C(N)NC(N)=NCCCCCCN=C(N)NC(N)=NCC(CC)CCCC (configuration not stated) : active
O=C(O)c1ccc(Cl)c(Cl)c1 : inactive

Which outcome was assigned to Cc1[nH]cnc1C[C@H]1CCc2c(C)c3ccccc3n2C1=O in this test?
active

Which outcome was assigned to O=C(c1ccc(O)cc1O)c1ccc(O)cc1O in this test?
inactive

Which outcome was assigned to O=C(Nc1cccc(Cl)c1)OCC#CCCl in this test?
active

###

# assay.overview: qHTS assay for identifying genotoxic compounds that show differential cytotoxicity against isogenic chicken DT40 cell lines with known DNA damage response pathways - Rad54/Ku70 mutant cell line (AID 743015); further: nearly all actives have a fitted effect of over 60% in size
# test.parameters: DT40 Rad54/Ku70 mutant viability, CellTiter-Glo, 40 h; series mostly up to 66.8 µM
Results filed as inconclusive are left out. Activity calls are given as the source filed them. Calls come from the whole dose curve; as a rule, active = well fitted cell-killing curve with a large enough effect in the repeat runs; inconclusive = weak or mixed curves; inactive = no such curve, though single readings can be large or run the other way.
Could you please pick one outcome from this set? active, inactive

Solved cases below.
Nc1ccc(N)c2ccccc12 : active
CCc1cc(Cc2cc(CC)cc(C(C)(C)C)c2O)c(O)c(C(C)(C)C)c1 : active
CC(C)c1ccc2c(c1)CC[C@H]1[C@](C)(CN)CCC[C@]21C : active
O=C(OCC1CO1)C1CCCCC1C(=O)OCC1CO1 (stereo not given) : active

Which outcome was assigned to CC[C@@]1(O)C(=O)OCc2c1cc1n(c2=O)Cc2cc3c(CN(C)C)c(O)ccc3nc2-1 in this test?
active

Which outcome was assigned to NC(=O)NS(=O)(=O)c1ccc(N)cc1 in this test?
inactive

Which outcome was assigned to OCCN(CCO)c1nc(N2CCCCC2)c2nc(N(CCO)CCO)nc(N3CCCCC3)c2n1 in this test?
active

These measurements were taken from PubChem BioAssay (Tox21).
